Test: Dexamethasone in eye tissues and fluids after one 25 μL depot instillation
Conditions: female, New Zealand White, rabbit, cornea, topical, 25 μL, Dexamethasone, Cornea Average (±SD), Day 21; one 25 μL instillation
readout-kind: concentration at 21 day
# output: number + unit

Consider the compound C[C@@H]1C[C@H]2[C@@H]3CCC4=CC(=O)C=C[C@]4(C)[C@@]3(F)[C@@H](O)C[C@]2(C)[C@@]1(O)C(=O)CO and give its measured concentration at 21 day. 8.14 ng/g

* * *

Assay: Dexamethasone level in anterior chamber after 50 μL depot (GLP study)
Assay type: in vivo, New Zealand White (NZW) rabbits
Conditions: both sexes, New Zealand White, rabbit, topical, Day 1, 50 μL depot 10:72:18
readout-kind: concentration at 1 day (ng/mL)
Entry rule: numbers only, all in ng/mL.

Consider the compound C[C@@H]1C[C@H]2[C@@H]3CCC4=CC(=O)C=C[C@]4(C)[C@@]3(F)[C@@H](O)C[C@]2(C)[C@@]1(O)C(=O)CO [Dexamethasone, dexamethasone] and give its measured concentration at 1 day. 6.68

Values compiled from patent US12280141B2.
